- EXPERIMENTAL SYSTEM: human muscarinic M4 receptor (Homo sapiens)
- Construct: expressed in transfected cells
- Sequence (P08173 whole entry): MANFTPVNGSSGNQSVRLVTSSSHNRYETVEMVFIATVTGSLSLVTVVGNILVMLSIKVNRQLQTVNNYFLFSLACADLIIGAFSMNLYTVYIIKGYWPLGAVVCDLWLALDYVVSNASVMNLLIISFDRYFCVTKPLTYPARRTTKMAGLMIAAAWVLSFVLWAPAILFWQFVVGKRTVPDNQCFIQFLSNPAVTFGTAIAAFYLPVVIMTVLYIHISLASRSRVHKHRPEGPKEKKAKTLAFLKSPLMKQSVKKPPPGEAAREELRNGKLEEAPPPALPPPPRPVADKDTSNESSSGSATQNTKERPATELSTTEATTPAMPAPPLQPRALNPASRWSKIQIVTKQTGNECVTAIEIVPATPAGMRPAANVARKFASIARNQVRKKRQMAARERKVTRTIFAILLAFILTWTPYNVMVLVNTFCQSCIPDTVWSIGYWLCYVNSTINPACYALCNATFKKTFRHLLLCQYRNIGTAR
- ASSAY SUMMARY: Alphascreen Surefire phospho-ERK1/2 functional assay, M4
- Type: cell-based
- CONDITION PARAMETERS: CHO, read-out: % Emax cf. ACh, M4, CHO cells stably expressing human M4; Emax relative to ACh
REPORTED PROPERTY: Emax (%)
The answer is to be given in %; state only the numeric part.

Measured Emax, CCOC(=O)N1CC2(CCC(N3CC(OC(=O)N4CCOCC4)C3)C2)C1 (single isomer, unassigned) [Example 4-8 Isomer 1] : 14

Entry CCOC(=O)N1CC2(CCC(N3CC(OC(=O)N4CCCC4)C3)C2)C1 (single isomer, unassigned) [Example 4-7 Isomer 1] ; Emax = 29

Reported Emax of CCN(CC)C(=O)OC1CN(C2CCC3(C2)CN(C(=O)OC)C3)C1 (single isomer, unassigned) [Example 4-6 Isomer 1] : 33
